Cited source: ChEMBL document CHEMBL1132975

- experiment.notes: The compound was evaluated for oral bioavailability in the rat at a peroral (po) dose of 5 mg/kg
- Type: ADME, organism-based
- condition.description: in vivo
experimental.readout: bioavailability (%)
Answers are plain numbers, in %.

q: Can you share its bioavailability? I mean this compound: `Cc1cccc(C)c1OCC(=O)N[C@@H](Cc1ccccc1)[C@H](O)CN1CC[C@@H](SCc2ccncc2)C[C@H]1C(=O)NC(C)(C)C`
a: 22

====

- experiment.notes: Area Under the Curve (AUC) for the compound is evaluated after the oral administration at 5 mg/kg.
- Format: ADME, organism-based
- Set-up: dose 5 mg/kg, route oral
- condition.description: in vivo
experimental.readout: AUC

Cc1cccc(C)c1OCC(=O)N[C@@H](Cc1ccccc1)[C@H](O)CN1CC[C@@H](SCc2cccnc2)C[C@H]1C(=O)NC(C)(C)C
3.26 µM·h
Cc1cc(S[C@@H]2CCN(C[C@@H](O)[C@H](Cc3ccccc3)NC(=O)COc3c(C)cccc3C)[C@H](C(=O)NC(C)(C)C)C2)nc(C)n1
1.67 µM·h
Cc1cccc(C)c1OCC(=O)N[C@@H](Cc1ccccc1)[C@H](O)CN1CC[C@@H](Sc2ccncc2)C[C@H]1C(=O)NC(C)(C)C
1.77 µM·h

q: Can you share its AUC? I mean this molecule: `Cc1cccc(C)c1OCC(=O)N[C@@H](Cc1ccccc1)[C@H](O)CN1CC[C@@H](SCc2ccncc2)C[C@H]1C(=O)NC(C)(C)C`
a: 1.71 µM·h

====

- tested.system: Human immunodeficiency virus type 1 protease (Human immunodeficiency virus 1, UniProt Q72874)
- experiment.notes: In vitro inhibition of HIV-1.
For each of the molecules below, state its pIC50.
Give bare numbers, as −log10 of the molar value.

Cc1cc(S[C@@H]2CCN(C[C@@H](O)[C@H](Cc3ccccc3)NC(=O)COc3c(C)cccc3C)[C@H](C(=O)NC(C)(C)C)C2)nc(C)n1
8.82
Cc1cccc(C)c1OCC(=O)N[C@@H](Cc1ccccc1)[C@H](O)CN(CC(C)C)S(=O)(=O)c1ccc(N)cc1
8.59

q: Can you share its pIC50? I mean this molecule: `Cc1ccccc1OCC(=O)N[C@@H](Cc1ccccc1)[C@H](O)CN1CC[C@@H](OCc2ccncc2)C[C@H]1C(=O)NC(C)(C)C`
a: 6.92

====

- experiment.notes: The plasma concentration is evaluated after oral administration of 5 mg/kg
- Type: ADME, organism-based
- Parameters: dose 5 mg/kg, route oral
experimental.readout: Cmax (nM)
Answers are plain numbers, in nM.

q: Can you share its Cmax? I mean this molecule: `Cc1cccc(C)c1OCC(=O)N[C@@H](Cc1ccccc1)[C@H](O)CN1CC[C@@H](SCc2ccncc2)C[C@H]1C(=O)NC(C)(C)C`
a: 1660

====

For each of the compounds below, state its pEC50.
- Test system: Human immunodeficiency virus 2
- experiment.notes: Effective concentration to inhibit replication of viral strain HIV-2 ROD in acutely infected C8166T cells
- Type: functional, organism-based
- condition.description: Human immunodeficiency virus 2, C8166T
Numbers only, as −log10 of the molar value.

CC(C)[C@H](NC(=O)c1ccc2ccccc2n1)C(=O)N[C@@H](Cc1ccccc1)[C@H](O)CN1CC[C@@H](OCc2ccncc2)C[C@H]1C(=O)NC(C)(C)C
7.60

Lab note: next compound to report on.
q: Can you share its pEC50? I mean this compound: `Cc1cccc(C)c1OCC(=O)N[C@@H](Cc1ccccc1)[C@H](O)CN1CC[C@@H](Sc2ccncc2)C[C@H]1C(=O)NC(C)(C)C`
a: 8.52
